// provenance: patent US20240002497A1

Could you please report measured Mean MFI for the items listed next?
# Target: rhNav1.7α + β1-β2-β3 (rhesus Nav1.7α co-expressed with Navβ1, Navβ2 and Navβ3) (rhesus monkey)
# Assay details: FACS, periplasmic extract, CHO Flp-In cells; SD MFI 6
Give bare numbers, in MFI.

Some binders with known Mean MFI results, for comparison:
Request: Form field: reported Mean MFI of F0103464B09 N99F library variant (VHH, name in Kabat numbering) VHH: EVQLVESGGGLVQPGGSLRLSCATTSRAFIRDVFTGWYRRVPGKERELVARIYNGGNTNYADFAKGRFSISRDNAKKMVTLRMSNLKPEDTGVYYCLFSGTIFTGREYRSGDYWGQGTLVTVSS
Result: 516

Request: Recorded Mean MFI for F0103464B09 N99C library variant (VHH, name in Kabat numbering) VHH: EVQLVESGGGLVQPGGSLRLSCATTSRAFIRDVFTGWYRRVPGKERELVARIYNGGNTNYADFAKGRFSISRDNAKKMVTLRMSNLKPEDTGVYYCLFSGTICTGREYRSGDYWGQGTLVTVSS , please?
Result: 528

Request: What does the data say about its Mean MFI? Entry: F0103464B09 N99I library variant (VHH, name in Kabat numbering) VHH: EVQLVESGGGLVQPGGSLRLSCATTSRAFIRDVFTGWYRRVPGKERELVARIYNGGNTNYADFAKGRFSISRDNAKKMVTLRMSNLKPEDTGVYYCLFSGTIITGREYRSGDYWGQGTLVTVSS
Result: 540

Request: Quick one: Mean MFI for F0103464B09 N99E library variant (VHH, name in Kabat numbering) VHH: EVQLVESGGGLVQPGGSLRLSCATTSRAFIRDVFTGWYRRVPGKERELVARIYNGGNTNYADFAKGRFSISRDNAKKMVTLRMSNLKPEDTGVYYCLFSGTIETGREYRSGDYWGQGTLVTVSS ?
Result: 528

For the next question, use this binder.
Request: Please give the measured Mean MFI for this binder: F0103464B09 N99V library variant (VHH, name in Kabat numbering) VHH: EVQLVESGGGLVQPGGSLRLSCATTSRAFIRDVFTGWYRRVPGKERELVARIYNGGNTNYADFAKGRFSISRDNAKKMVTLRMSNLKPEDTGVYYCLFSGTIVTGREYRSGDYWGQGTLVTVSS
Result: 552
